measurement.target: CDK7/Cyclin H/MAT1 complex (Homo sapiens, UniProt P50613)
Sequence (P50613 whole entry, species assumed): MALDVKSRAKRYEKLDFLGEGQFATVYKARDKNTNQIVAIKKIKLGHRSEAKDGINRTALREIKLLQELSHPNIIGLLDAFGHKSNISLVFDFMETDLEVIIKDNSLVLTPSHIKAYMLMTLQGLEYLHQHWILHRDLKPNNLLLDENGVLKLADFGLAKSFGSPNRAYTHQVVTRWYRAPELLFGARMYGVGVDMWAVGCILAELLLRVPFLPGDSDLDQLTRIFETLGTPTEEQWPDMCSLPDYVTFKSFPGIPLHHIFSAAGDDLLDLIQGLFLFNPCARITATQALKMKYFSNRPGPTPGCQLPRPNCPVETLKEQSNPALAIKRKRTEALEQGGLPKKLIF
Sequence (P51946 whole entry partner, species assumed): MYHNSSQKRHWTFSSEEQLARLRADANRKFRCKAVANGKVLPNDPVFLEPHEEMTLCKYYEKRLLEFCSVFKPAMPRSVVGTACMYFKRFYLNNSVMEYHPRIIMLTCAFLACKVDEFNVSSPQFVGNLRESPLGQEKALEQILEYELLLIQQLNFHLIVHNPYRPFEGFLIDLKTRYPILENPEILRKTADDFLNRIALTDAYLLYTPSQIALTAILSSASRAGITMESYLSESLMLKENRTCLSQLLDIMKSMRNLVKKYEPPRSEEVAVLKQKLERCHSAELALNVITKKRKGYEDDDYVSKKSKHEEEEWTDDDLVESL
Sequence (P51948 whole entry partner, species assumed): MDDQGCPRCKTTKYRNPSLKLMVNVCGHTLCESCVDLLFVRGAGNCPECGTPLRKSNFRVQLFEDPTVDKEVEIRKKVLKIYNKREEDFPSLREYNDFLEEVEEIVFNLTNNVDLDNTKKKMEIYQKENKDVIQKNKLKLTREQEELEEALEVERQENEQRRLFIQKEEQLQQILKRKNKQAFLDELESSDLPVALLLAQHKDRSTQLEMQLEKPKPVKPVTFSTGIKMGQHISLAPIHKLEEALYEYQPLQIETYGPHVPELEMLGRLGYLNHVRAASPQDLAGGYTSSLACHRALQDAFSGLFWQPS
run.description: CDK7 inhibition assay (Caliper/LabChip EZ Reader kinase assay)
Type: biochemical
condition.context: Table 1; CDK7/Cyclin H/MAT1 6 nM, ATP 2 mM, 35 min at 27° C.
pIC50: −log10 of the molar value.
measured.metric: pIC50

O=C(O)c1ccc2c(-c3nc(N[C@H]4CCCNC4)ncc3C(F)(F)F)c[nH]c2c1 [Compound 306] :: 6.70 to 7.70

## Input What value of measured pIC50 is listed for N#Cc1cn(-c2ccc3c(-c4nc(NC5CCCNC5)ncc4C(F)(F)F)c[nH]c3c2)cn1 (stereo not drawn) [Compound 249] ?
## Output > 7.70

## Input Entry CO[C@H]1CCN(C(=O)c2ccc3c(-c4nc(N[C@H]5CCCNC5)ncc4C(F)(F)F)c[nH]c3c2)C1 [Compound 280] : reported pIC50 = ?
## Output 6.70 to 7.70

## Input pIC50 for OCc1cccc(-c2ccc3c(-c4nc(N[C@H]5CCCNC5)ncc4C(F)(F)F)c[nH]c3c2)n1 [Compound 316] ?
## Output > 7.70

---

measurement.target: CDK7/Cyclin H/MAT1 complex (Homo sapiens, UniProt P50613)
run.description: CDK7 inhibition assay (Caliper/LabChip EZ Reader kinase assay)
Assay type: biochemical
condition.context: Table 1; CDK7/Cyclin H/MAT1 6 nM, ATP 2 mM, 35 min at 27° C.
pIC50: −log10 of the molar value.
The following molecules are listed with their measured pIC50 values.

Past entries and their recorded results:
FC(F)(F)Sc1cnc(NC2CCCNC2)nc1-c1c[nH]c2ccccc12 (stereo not drawn) [Compound 305] :: > 7.70
CCc1cnc(N[C@H]2CCCNC2)nc1-c1n[nH]c2c(F)cccc12 [Compound 143] :: > 7.70
CCC(=O)N[C@@H]1CNC[C@H](Nc2ncc(C(F)(F)F)c(-c3c[nH]c4c(S(C)(=O)=O)cccc34)n2)C1 (single isomer, unassigned) [Compound 259] :: > 7.70

## Input Would you mind telling me what pIC50 value was observed for FC(F)n1cc(-c2ccc3c(-c4nc(N[C@H]5CCCNC5)ncc4C(F)(F)F)c[nH]c3c2)cn1 [Compound 290] ?
## Output 6.70 to 7.70

## Input Which pIC50 is listed for CN1CCC[C@H](Nc2ncc(Cl)c(-c3c[nH]c4ccccc34)n2)C1 [Compound 136] ?
## Output > 7.70

## Input Any idea what its pIC50 is? The molecule is FC(F)(F)c1cnc(N[C@H]2CCC3(CCCCC3)NC2)nc1-c1c[nH]c2ccccc12 [Compound 240]
## Output 6.70 to 7.70

## Input Dear colleague, I am looking for the recorded pIC50 of the following molecule: CCc1cnc(N[C@H]2CCCNC2)nc1-c1n[nH]c2nc(C#N)ccc12 [Compound 277]
## Output > 7.70

## Input # lookup: pIC50 of COCn1cc(-c2nc(N[C@H]3CCCNC3)ncc2C(F)(F)F)c2cccc(C#N)c21 [Compound 295]
## Output 6.70 to 7.70

## Input Form field: reported pIC50 of FC(F)(F)c1cnc(N[C@H]2CCCNC2)nc1-c1c[nH]c2cc(-c3cccc4cnccc34)ccc12 [Compound 344]
## Output 6.70 to 7.70

## Input Give its pIC50 value. Item: O=C([C@H]1CC[C@H](Nc2ncc(C(F)(F)F)c(-c3c[nH]c4ccccc34)n2)CN1)N1CCCC1 [Compound 228]
## Output > 7.70

## Input Consider the molecule FC(F)(F)c1cnc(NC2CNCc3ccccc32)nc1-c1c[nH]c2ccccc12 (stereo not drawn) [Compound 216] and give its measured pIC50.
## Output 5.30 to 6.70

## Input # query: pIC50 of entry CCC(=O)N[C@H]1CNC[C@@H](Nc2ncc(C(F)(F)F)c(-c3c[nH]c4c(S(C)(=O)=O)cccc34)n2)C1 [Compound 254]
## Output 5.30 to 6.70

## Input Which pIC50 is reported for this molecule? CNS(=O)(=O)c1ccc2c(-c3nc(N[C@H]4CCCNC4)ncc3C(F)(F)F)c[nH]c2c1 [Compound 200]
## Output > 7.70

## Input Quick one: pIC50 of CNC(=O)c1ccc2c(-c3nc(N[C@H]4CCCNC4)ncc3C(F)(F)F)c[nH]c2n1 [Compound 297] ?
## Output > 7.70

## Input Please give the measured pIC50 for this molecule: CS(=O)(=O)c1ccc2c(-c3nc(N[C@H]4CCCNC4)ncc3C(F)(F)F)c[nH]c2c1 [Compound 199]
## Output > 7.70

## Input Look up pIC50: CC(C)CN1CCC[C@H](Nc2ncc(Cl)c(-c3c[nH]c4ccccc34)n2)C1 [Compound 145]
## Output 6.70 to 7.70

## Input Given the entry C#Cc1cnc(N[C@H]2CCCNC2)nc1-c1cn(C)c2ccccc12 [Compound 195] , report its measured pIC50.
## Output 5.30 to 6.70

## Input What value of measured pIC50 is listed for CP(C)(=O)c1cccc2c(-c3nc(N[C@H]4CCCNC4)ncc3C(F)(F)F)c[nH]c12 (single isomer, unassigned) [Compound 353] ?
## Output > 7.70

## Input I have this molecule here, FC(F)(F)c1cnc(N[C@H]2CCCNC2)nc1-c1c[nH]c2cc(-c3ccnnc3)ccc12 [Compound 230] , and I need its recorded pIC50.
## Output > 7.70

## Input Give its pIC50 value. Item: O=S1(=O)CCn2cc(-c3nc(N[C@H]4CCCNC4)ncc3C(F)(F)F)c3cccc1c32 [Compound 348]
## Output 6.70 to 7.70

## Input What does the record list as pIC50 for CC(C)c1cnc(N[C@H]2CCCNC2)nc1-c1n[nH]c2nc(C#N)ccc12 [Compound 276] ?
## Output 6.70 to 7.70

## Input Which pIC50 reading was recorded for the molecule O=C(C1CCC(Nc2ncc(C(F)(F)F)c(-c3c[nH]c4ccccc34)n2)CN1)N1CCC(O)C1 (mixture of isomers) [Compound 250] ?
## Output > 7.70

## Input Find the recorded pIC50 belonging to FC(F)(F)c1cnc(N[C@H]2CCCNC2)nc1-c1c[nH]c2c(-c3ccncc3)cccc12 [Compound 162] and report it.
## Output 6.70 to 7.70

## Input Which measured pIC50 value corresponds to C[C@]1(O)CCN(C(=O)c2ccc3c(-c4nc(N[C@H]5CCCNC5)ncc4C(F)(F)F)c[nH]c3c2)C1 [Compound 220] ?
## Output > 7.70

## Input For the molecule shown here, O=C(c1ccc2c(-c3nc(N[C@H]4CCCNC4)ncc3C(F)(F)F)c[nH]c2c1)N1CC[C@](O)(C(F)(F)F)C1 (single isomer, unassigned) [Compound 299] , give the reported pIC50.
## Output > 7.70

## Input Data request, read-out pIC50, for CC(C)S(=O)(=O)c1ccc2c(-c3nc(N[C@H]4CCCNC4)ncc3C(F)(F)F)c[nH]c2c1 [Compound 346]
## Output 6.70 to 7.70

## Input Which pIC50 is listed for CCc1cnc(N[C@H]2CCCNC2)nc1-c1n[nH]c2ncccc12 [Compound 262] ?
## Output > 7.70

---

measurement.target: CDK7/Cyclin H/MAT1 complex (Homo sapiens, UniProt P50613)
run.description: CDK7 inhibition assay (Caliper/LabChip EZ Reader kinase assay)
Format: biochemical
condition.context: Table 1; CDK7/Cyclin H/MAT1 6 nM, ATP 2 mM, 35 min at 27° C.
Below: a set of entries, each annotated with reported IC50.

FC(F)(F)c1cnc(N[C@H]2CCCNC2)nc1-c1c[nH]c2cc(-c3ccn[nH]3)ccc12 :: < 20 nM
Cc1noc(C)c1-c1ccc2c(-c3nc(N[C@H]4CCCNC4)ncc3C(F)(F)F)c[nH]c2c1 :: < 20 nM
Cn1cc(-c2ccc3c(-c4nc(N[C@H]5CCCNC5)ncc4C(F)(F)F)c[nH]c3c2)c2cnc(C(F)(F)F)cc21 :: 20 to 200 nM
CC[C@H]1CC[C@H](Nc2ncc(C(F)(F)F)c(-c3c[nH]c4ccccc34)n2)CN1 :: < 20 nM
COC1CCN(C(=O)c2ccc3c(-c4nc(N[C@H]5CCCNC5)ncc4C(F)(F)F)c[nH]c3c2)C1 (single isomer, unassigned) :: < 20 nM

## Input Which IC50 is reported for this compound? `CCc1cnc(N[C@H]2CCCNC2)nc1-c1c[nH]c2c(S(=O)O)cccc12`
## Output 20 to 200 nM

## Input Could you share which IC50 value was measured for CNC(=O)C1CNCC(Nc2ncc(C(F)(F)F)c(-c3c[nH]c4ccccc34)n2)C1 (single isomer, unassigned) [Compound 252] ?
## Output 20 to 200 nM

---

measurement.target: CDK2/Cyclin E1 complex (Homo sapiens, UniProt P24941)
run.description: CDK2 inhibition assay (Caliper/LabChip EZ Reader kinase assay)
Format: biochemical
condition.context: Table 1; CDK2/Cyclin E1 0.5 nM, ATP 2 mM, 35 min at 27° C.; listed as 140
measured.metric: IC50

## Input // returns reported IC50 for input `O=C(c1cccc(-c2ccc3c(-c4nc(N[C@H]5CCCNC5)ncc4C(F)(F)F)c[nH]c3c2)c1)N1CCCC1`
## Output > 5 µM
